- SUBJECT OF TEST: GABA-A receptor; anion channel
- TEST DESCRIPTION: Specific binding of [3H]Ro-151788 to GABA-A Benzodiazepine receptor in rat cortex
pIC50: −log10 of the molar value.
Rule: pIC50 under 9 gives class 0, otherwise class 1.

[
  {
    "SMILES ENTRY": "O=c1c2cnc3ccc(Cl)cc3c2[nH]n1-c1ccccc1Cl",
    "ANSWER LABEL": "class 0"
  },
  {
    "SMILES ENTRY": "O=c1c2cnc3ccc(Cl)cc3c2[nH]n1-c1ccc(Cl)cc1",
    "ANSWER LABEL": "class 0"
  },
  {
    "SMILES ENTRY": "O=c1c2cnc3ccc(Cl)cc3c2[nH]n1-c1ccccc1",
    "ANSWER LABEL": "class 1"
  },
  {
    "SMILES ENTRY": "COc1ccc2c(c1)ncc1c(=O)n(-c3ccccc3)[nH]c12",
    "ANSWER LABEL": "class 0"
  },
  {
    "SMILES ENTRY": "COc1ccc2ncc3c(=O)n(-c4ccccc4)[nH]c3c2c1",
    "ANSWER LABEL": "class 1"
  },
  {
    "SMILES ENTRY": "O=c1c2cnc3ccccc3c2[nH]n1-c1ccccc1Cl",
    "ANSWER LABEL": "class 0"
  },
  {
    "SMILES ENTRY": "O=c1c2cnc3ccccc3c2[nH]n1-c1cccc(Cl)c1",
    "ANSWER LABEL": "class 0"
  },
  {
    "SMILES ENTRY": "COc1ccccc1-n1[nH]c2c(cnc3ccccc32)c1=O",
    "ANSWER LABEL": "class 0"
  }
]
